Reported activity change, negative = cytotoxicity values follow for various molecules
- System: Es-2
- ASSAY: Primary qHTS to identify gynecologic anti-cancer compounds using libraries of approved drugs and bioactive compounds (AID 1345084); note: % is set by controls: 0 for no effect and ±100 for the full control effect; nearly all actives have a fitted effect of over 55% in size
- TEST CONTEXT: Gynecologic cancer cell panel viability, ATPlite luminescence, 48 h; series mostly up to 57.5 µM
- From the text: National Center for Advancing Translational Sciences [NCATS] Assay Overview: Chemotherapeutic drug responses vary from cancer to cancer and from patient to patient. […] ATPlite is a luminescence based assay reliant on the conversion of a luciferase substrate to light in the presence of ATP. As a cytotoxic compound will suppress growth and decrease the number of cells, the concentration of ATP will decrease, and less light signal will be detected in the well. […]
Results filed as inconclusive are left out. Active and inactive are the calls of the source. Calls come from the whole dose curve; as a rule, active = well fitted cell-killing curve with a large enough effect; inconclusive = small, poorly fitted or top-dose-only effect, or effect the other way; inactive = flat fitted curve, though single readings scatter.
OBSERVATION TYPE: activity change, negative = cytotoxicity

[[record]]
molecule = "C[C@@H]1O[C@@H](O[C@@H]2[C@@H](O)[C@H](O[C@H]3CC[C@@]4(C)C(CC[C@]5(C)C4CC=C4[C@@H]6CC(C)(C)CC[C@]6(C(=O)O[C@@H]6O[C@H](CO)[C@@H](O)[C@H](O)[C@H]6O)CC[C@]45C)C3(C)C)O[C@H](C(=O)O)[C@H]2O)[C@H](O)[C@H](O)[C@H]1O (some centres undefined)"
experimental_value = "6.6% [at 11.6 µM] (inactive)"

[[record]]
molecule = "O=C(O)C1CN(Cc2ccc(-c3nc4cc(Cc5ccccc5F)ccc4s3)c(F)c2)C1"
experimental_value = "0.907% [at 11.6 µM] (inactive)"

[[record]]
molecule = "CC1(C)CCC2(C(=O)OC3OC(CO)C(O)C(O)C3O)CCC3(C)C(=CCC4C5(C)CCC(OC6OC(C(=O)O)C(OC7OC(CO)C(O)C(O)C7O)C(OC7OC(CO)C(O)C(O)C7O)C6O)C(C)(C)C5CCC43C)C2C1 (centres undefined)"
experimental_value = "-0.153% [at 11.6 µM] (inactive)"

[[record]]
molecule = "CC1(C)CCC2(C(=O)OC3OCC(O)C(O)C3O)CCC3(C)C(=CCC4C5(C)CC(O)C(OC6OC(COC7OCC(O)C(O)C7O)C(O)C(O)C6O)C(C)(C)C5CCC43C)C2C1 (centres undefined)"
experimental_value = "5.97% [at 11.6 µM] (inactive)"

[[record]]
molecule = "C=C1CC[C@@H]2[C@@](C)(CO[C@@H]3O[C@H](CO)C(O)[C@H](O)C3O)[C@H](O)CC[C@@]2(C)[C@@H]1CC/C(C)=C/CO (some centres undefined)"
experimental_value = "9.56% [at 11.6 µM] (inactive)"

[[record]]
molecule = "C/C=C(\\C)C(=O)OCC1OC(OC2OC(COC(=O)/C(C)=C/C)C(OC3OC(CO)C(OC(=O)/C(C)=C/C)C(OC(=O)/C(C)=C/C)C3O)C(O)C2O)C(O)C(O)C1OC1OC(CO)C(OC(=O)/C(C)=C/C)C(OC(=O)/C(C)=C/C)C1O (centres undefined)"
experimental_value = "9.5% [at 11.6 µM] (inactive)"

[[record]]
molecule = "C=C(C)C1CCC2(C(=O)O[C@@H]3O[C@H](CO[C@@H]4O[C@H](CO)[C@@H](O)[C@H](O)[C@H]4O)[C@@H](O)[C@H](O[C@@H]4O[C@@H](C)[C@H](O)[C@@H](O)[C@H]4O)[C@H]3O)CCC3(C(=O)O)C(CCC4C5(C)CCC(O)C(C)(C)C5CCC43C)C12 (some centres undefined)"
experimental_value = "1.26% [at 11.6 µM] (inactive)"

[[record]]
molecule = "C[C@@H]1O[C@@H](O[C@H]2[C@H](OC(=O)[C@]34CCC(C)(C)C[C@H]3C3=CCC5[C@@]6(C)C[C@H](O)[C@H](O[C@@H]7O[C@H](CO)[C@@H](O)[C@H](O)[C@H]7O)[C@@](C)(CO)C6[C@H](O)C[C@@]5(C)[C@]3(C)CC4)OC[C@H](O)[C@@H]2O)[C@H](O)[C@H](O)[C@H]1O[C@@H]1OC[C@@H](O)[C@H](O[C@@H]2OC[C@](O)(CO)[C@H]2O)[C@H]1O (some centres undefined)"
experimental_value = "6.38% [at 6.55 µM] (inactive)"

[[record]]
molecule = "CN(C)C(=O)NC1CCC(CCN2CCN(c3cccc(Cl)c3Cl)CC2)CC1 (centres undefined)"
experimental_value = "5.23% [at 11.6 µM] (inactive)"


Cited source for all entries: PubChem BioAssay (NCATS)
